# SYSTEM NAME: Prostaglandin E2 receptor EP2 subtype (Homo sapiens)
# METHOD DESCRIPTION: EP2 receptor modulators, dose response, cell-based, human EP2, PGE2 EC50 shift (AID 1421)
# CONDITION INFO: EP2-expressing cells, PGE2 EC50 shift by compound; measured here: PGE2 EC50 at 6.7 uM compound
OUTCOME MEASURE: PGE2 EC50 with compound (nM)
Note: unit nM is implicit; provide only the numeric part.

// below: answered compounds
CC(C)CCNC(=O)c1c(N)n(CC2CCCO2)c2nc3ccccc3nc12 (configuration not stated) ... 0.95
O=S1(=O)CCN(Cc2cccc(Cl)c2)CC1 ... 1.39
COc1ccc(OCC(=O)NC(=S)Nc2ccc3c4c(cccc24)CC3)cc1 ... 2.85
O=C(Nc1ccccc1)/C(=C/c1ccccc1)c1ccccc1 ... 2.56

Sample COC(=O)c1cc(-c2ccc3c(c2)OCO3)nc2ccccc12 — what was its PGE2 EC50 with compound? 0.7

Same read-out for CCCc1cc(=O)n2[nH]c(NCc3cccs3)nc2n1 ? 2.54

Same read-out for c1ccc(Cn2c(-c3ccccc3)nc3nc4ccccc4nc32)cc1 ? 1.08

###

Entries and their PGE2 EC50 with compound values follow.
# SYSTEM NAME: UniProtKB P43116
# METHOD DESCRIPTION: EP2 receptor modulators, dose response, cell-based, human EP2, PGE2 EC50 shift (AID 1421)
# CONDITION INFO: EP2-expressing cells, PGE2 EC50 shift by compound; measured here: PGE2 EC50 at 6.7 uM compound
Note: unit nM is implicit; provide only the numeric part.

// below: answered molecules
O=C(Cc1ccccc1)Nc1ccccc1N1CCN(c2ccccc2)CC1 ... 0.95
C[C@H](CCC(=O)O)[C@@H]1CC[C@@H]2[C@H]3CC[C@@H]4C[C@H](O)CC[C@@]4(C)[C@@H]3CC[C@]21C ... 1.38

What reported PGE2 EC50 with compound corresponds to C=CCN1C(=O)/C(=C/c2ccc(O)c(OC)c2)S/C1=N/c1nccs1 on UniProtKB P43116? 1.27

Same read-out for Cc1ccccc1S(=O)(=O)c1c(C)cc(C)n(CC(C)C)c1=O ? 2.47

Same read-out for Brc1ccccc1Cn1c(-c2cscn2)nc2ccccc21 ? 0.94

Same read-out for COc1ccc(C2CC(c3cccs3)=NN2C(=O)c2ccc(Br)o2)cc1 (stereo unspecified) ? 1.25

###

Entries and their PGE2 EC50 with compound values follow.
# SYSTEM NAME: Prostaglandin E2 receptor EP2 subtype (Homo sapiens) (UniProt P43116)
# Sequence (P43116 whole entry, looked up): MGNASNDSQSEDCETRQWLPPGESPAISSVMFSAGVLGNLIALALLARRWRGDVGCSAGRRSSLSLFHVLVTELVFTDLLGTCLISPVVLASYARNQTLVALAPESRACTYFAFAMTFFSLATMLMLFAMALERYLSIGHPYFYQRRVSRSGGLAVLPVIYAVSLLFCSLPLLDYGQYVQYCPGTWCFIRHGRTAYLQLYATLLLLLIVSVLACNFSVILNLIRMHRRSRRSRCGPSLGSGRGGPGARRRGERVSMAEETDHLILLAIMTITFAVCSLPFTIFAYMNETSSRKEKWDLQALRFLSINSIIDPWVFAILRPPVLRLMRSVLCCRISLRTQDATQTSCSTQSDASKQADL
# METHOD DESCRIPTION: EP2 receptor modulators, dose response, cell-based, human EP2, PGE2 EC50 shift (AID 1421)
# CONDITION INFO: EP2-expressing cells, PGE2 EC50 shift by compound; measured here: PGE2 EC50 at 6.7 uM compound
Note: unit nM is implicit; provide only the numeric part.

CCOC(=O)c1c(CC(C)C)csc1/N=C/C1C(=O)CCCC1=O ... 1
CCOc1ccc(OCC)c(NC(=O)CN2CCN(c3cccc(C)c3)CC2)c1 ... 1.02

Next compound, please.
Sample Cc1ccc(S(=O)(=O)NCC(=O)OCN2C(=O)c3ccccc3C2=O)cc1 — what was its PGE2 EC50 with compound? 1.01
